study target: human IBAT (Homo sapiens, UniProt Q12908)
Construct: expressed in transfected cells; host or cells: Baby hamster kidney (BHK) cells, clone H14
Sequence (Q12908 1-348): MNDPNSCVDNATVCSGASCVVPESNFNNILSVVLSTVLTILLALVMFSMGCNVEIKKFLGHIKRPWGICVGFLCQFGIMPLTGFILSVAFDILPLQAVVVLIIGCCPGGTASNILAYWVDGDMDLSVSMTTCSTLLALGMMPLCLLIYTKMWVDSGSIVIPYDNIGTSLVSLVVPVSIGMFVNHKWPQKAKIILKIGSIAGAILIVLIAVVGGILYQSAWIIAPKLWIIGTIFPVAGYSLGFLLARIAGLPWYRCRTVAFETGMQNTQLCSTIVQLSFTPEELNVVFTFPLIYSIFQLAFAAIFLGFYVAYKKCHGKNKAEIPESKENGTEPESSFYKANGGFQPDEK
assay procedure: In vitro assay of IBAT-mediated uptake of [14C]-taurocholate (TC) in H14 cells
Format: cell-based
applied conditions: read-out: Human TC IC50
measured attribute: IC50 (nM)

These solved cases illustrate the format of a correct answer.
molecule	IC50 / nM
CCCCC1(CCCC)CS(=O)(=O)c2ccc(N(C)C)cc2C(c2cccc(OCCOCCOCC[n+]3ccc(CCC)cc3)c2)C1O (stereo not drawn) [Example 1127]	13
C=COCCOCCOCCOc1ccc(C2c3cc(N(C)C)ccc3S(=O)(=O)CC(CCCC)(CCCC)C2O)cc1F (stereo not drawn) [Example 1238]	800
CCCCC1(CCCC)CS(=O)(=O)c2ccc(N(C)C)cc2C(c2ccc(OCCOCCOCC[N+](CC)(CC)CC)cc2)C1O (stereo not drawn) [Example 1048]	3
CCCCC1(CCCC)CS(=O)(=O)c2ccc(OC)cc2C(c2ccc([N+](C)(C)C)cc2)C1O (stereo not drawn) [Example 1202]	40000

(a) CCCCC1(CCCC)CS(=O)(=O)c2cc(Br)c(N(C)C)cc2C(c2ccc[nH]2)C1O (stereo not drawn) [Example 1228]
(b) CCCCC1(CCCC)CS(=O)(=O)c2ccc(N(C)C)cc2C(c2cccc(OCCOCCOCC[N+](C)(C)C3CC(C)(C)N(C)C(C)(C)C3)c2)C1O (stereo not drawn) [Example 1370]
// query Parameter metric = IC50. Return the lower-valued option from a and b . Please respond with the label that marks your chosen entry.
// result b
(b: 2 nM, a: 38 nM)

Each recorded value in this set is attributed to patent US6784201B2.
